Here the recorded inhibition is given for each entry.
test_target: Hexose transporter 1 (Plasmodium falciparum) (UniProt O97467)
assay_info: ST_JUDE_LEISH: Cytotoxicity at 2uM final concentration against transgenic Leishmania Mexicana promastigotes LmPfHT that are glucose transport deficient and complemented with the Plasmodium falciparum hexose transporter. Activity is measured by DNA content using SYBR green in vitro
Assay type: functional
measured_endpoint: inhibition (%)

[
  {
    "molecule": "CC(C#N)Cc1ccc(-c2cnc(N)c3cc(-c4ccnc(N)n4)ccc23)cc1 (configuration not stated)",
    "measured_endpoint": "inhibition",
    "reported": 3.48
  },
  {
    "molecule": "O=C(NCCCN(Cc1ccc(F)cc1)c1ccccn1)C(c1cc2ccccc2o1)N1CCN(C(c2ccccc2)c2ccccc2)CC1 (configuration not stated)",
    "measured_endpoint": "inhibition",
    "reported": 3.69
  },
  {
    "molecule": "CN(C)CCN(C)Cc1ccc(-c2ccc(NC(=O)c3cccc(C#N)c3)cc2)cc1",
    "measured_endpoint": "inhibition",
    "reported": 2.58
  },
  {
    "molecule": "Cc1cccc2nc(-c3ccc(-c4ccc(CNCCN5CCNCC5)cc4)s3)[nH]c12",
    "measured_endpoint": "inhibition",
    "reported": 3.12
  },
  {
    "molecule": "Cc1ccccc1C1CCN(C2CCC(NC(=O)/C=C/c3ccccc3C(F)(F)F)CC2)CC1 (configuration not stated)",
    "measured_endpoint": "inhibition",
    "reported": -0.14
  },
  {
    "molecule": "CC(=O)Nc1cccc(C(=O)Nc2cccc(-c3ccc(-c4nc5cccc(C)c5[nH]4)s3)c2)c1",
    "measured_endpoint": "inhibition",
    "reported": 1.14
  },
  {
    "molecule": "CCC(CC)n1c(C)cc2c3c(N)nc(N)nc3ccc21",
    "measured_endpoint": "inhibition",
    "reported": 90
  },
  {
    "molecule": "O=C(Nc1cccnc1)c1cc(-c2cccnc2)nc2ccc(Br)cc12",
    "measured_endpoint": "inhibition",
    "reported": 1.51
  },
  {
    "molecule": "CCC(=O)N(c1ccccc1)C1CCN(CCCC(NC(=O)Nc2cc(C(F)(F)F)cc(C(F)(F)F)c2)c2ccc(Cl)c(Cl)c2)CC1 (configuration not stated)",
    "measured_endpoint": "inhibition",
    "reported": 0.47
  },
  {
    "molecule": "CCC1(CC)C(=O)N=C(N2CCCCC2)N(C)C1=O",
    "measured_endpoint": "inhibition",
    "reported": 14.2
  },
  {
    "molecule": "CCOc1ccc(N2C(N)=NC(N)=NC2(C)C)cc1",
    "measured_endpoint": "inhibition",
    "reported": 3.86
  },
  {
    "molecule": "O=C(Nc1ccccc1)N(Cc1ccc(-c2ccc(CNCc3ccc4c(c3)OCO4)cc2)cc1)C1CCN(Cc2ccccc2)CC1",
    "measured_endpoint": "inhibition",
    "reported": -0.02
  },
  {
    "molecule": "Cc1cccc2nc(-c3ccc(-c4ccc(CN5CCN(CC6CCCN(C)C6)CC5)cc4)cc3)[nH]c12 (configuration not stated)",
    "measured_endpoint": "inhibition",
    "reported": 10.8
  },
  {
    "molecule": "O=C1Nc2cccc3c2C1(CCCCN1CCC(c2c(-c4ccccc4)[nH]c4ccccc24)CC1)CCC3 (configuration not stated)",
    "measured_endpoint": "inhibition",
    "reported": 2.74
  },
  {
    "molecule": "CS(=O)(=O)c1ccc(CCNCc2ccc(-c3cccc(-c4nc5ccccc5[nH]4)c3)cc2)cc1",
    "measured_endpoint": "inhibition",
    "reported": 0.65
  },
  {
    "molecule": "COc1cc2nc(N3CCC(CNC(=O)c4cc5ccccc5s4)CC3)nc(N)c2cc1OC",
    "measured_endpoint": "inhibition",
    "reported": 11
  },
  {
    "molecule": "O=C(C=Cc1ccc(Cl)c(Cl)c1)NCCCCCN1CCC(CCNS(=O)(=O)c2ccc(F)cc2)CC1",
    "measured_endpoint": "inhibition",
    "reported": 0.05
  },
  {
    "molecule": "Cc1cc(N[C@@H](CC(C)C)C(=O)NC2CCCC2)nc(NCCc2ccc(F)cc2)n1",
    "measured_endpoint": "inhibition",
    "reported": 1.34
  },
  {
    "molecule": "O=C(NCCN1CCCCC1)c1cccc(Nc2nccc(Nc3ccc(Oc4ccccc4)cc3)n2)c1",
    "measured_endpoint": "inhibition",
    "reported": -0.85
  },
  {
    "molecule": "O=[N+]([O-])c1cccc(CNCC2CCN(CC3CCCCC3)CC2)c1",
    "measured_endpoint": "inhibition",
    "reported": 3.2
  },
  {
    "molecule": "CCCC(CNC(=O)c1cc2c(Cl)cc(Cl)cc2[nH]1)CNc1cc(=O)c2ccccc2[nH]1 (configuration not stated)",
    "measured_endpoint": "inhibition",
    "reported": 2.64
  },
  {
    "molecule": "CCN(CC)CCCC(C)Nc1ccnc2cc(Cl)ccc12 (configuration not stated)",
    "measured_endpoint": "inhibition",
    "reported": 1.5
  },
  {
    "molecule": "CSc1ccc2ccccc2c1CNCCCCCCNCc1c(SC)ccc2ccccc12",
    "measured_endpoint": "inhibition",
    "reported": 0.13
  },
  {
    "molecule": "CN(C)CCN(C)Cc1cccc(-c2ccc3c(Nc4ccc(F)cc4Cl)ccnc3c2)c1",
    "measured_endpoint": "inhibition",
    "reported": 4.55
  },
  {
    "molecule": "CC(C)(C)c1ccc(NC(=O)c2cccc(CN3CCN(Cc4cccc(O)c4)CC3)c2)cc1",
    "measured_endpoint": "inhibition",
    "reported": -0.15
  },
  {
    "molecule": "CC(C)CNCc1cccc(-c2cccc(CN(CCN(C)C)C(=O)Nc3ccccc3)c2)c1",
    "measured_endpoint": "inhibition",
    "reported": 4.17
  },
  {
    "molecule": "O=C1O[C@H](c2ccccc2)[C@H](c2ccccc2)N(C(=O)OCc2ccccc2)[C@H]1Cc1ccccc1C1CCCC1",
    "measured_endpoint": "inhibition",
    "reported": 2.14
  }
]
